Data provenance is paper PMC6069109.

# Tested on: GlnH (Mycobacterium tuberculosis)
# Sequence (P96257 27-328 limits assumed): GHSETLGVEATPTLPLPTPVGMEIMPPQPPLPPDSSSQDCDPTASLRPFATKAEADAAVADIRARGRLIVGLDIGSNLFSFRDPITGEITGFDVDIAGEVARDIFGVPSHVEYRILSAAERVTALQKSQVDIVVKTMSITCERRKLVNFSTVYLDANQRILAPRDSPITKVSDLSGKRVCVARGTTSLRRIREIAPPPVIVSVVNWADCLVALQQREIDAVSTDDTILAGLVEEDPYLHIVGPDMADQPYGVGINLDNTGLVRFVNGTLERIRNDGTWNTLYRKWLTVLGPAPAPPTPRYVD
# Experiment description: crystal structure, ITC, thermal melt shift
# Format: binding
Observation type: Kd (µM)
Write the answer as a number in µM, unit excluded.

Req: Which Kd value is on record for N[C@@H](CCC(=O)O)C(=O)O [glutamate] ?
Resp: 15.2

----------
# Tested on: C. glutamicum GlnH (GlnHcg) (Corynebacterium glutamicum, UniProt Q8NM30)
# Construct: gene Cgl2750; soluble domain, N-terminal His6 tag
# Sequence (Q8NM30 entry or part of it): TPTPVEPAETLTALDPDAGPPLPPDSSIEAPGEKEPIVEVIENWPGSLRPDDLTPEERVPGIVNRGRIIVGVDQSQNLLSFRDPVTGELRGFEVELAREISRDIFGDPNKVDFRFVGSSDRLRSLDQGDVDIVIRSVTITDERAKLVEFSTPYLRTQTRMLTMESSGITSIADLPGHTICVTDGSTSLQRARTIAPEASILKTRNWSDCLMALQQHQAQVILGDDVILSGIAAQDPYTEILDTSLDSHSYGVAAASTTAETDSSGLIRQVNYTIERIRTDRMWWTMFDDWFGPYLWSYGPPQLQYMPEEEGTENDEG
# Experiment description: intrinsic tryptophan fluorescence, thermal melt shift
# Assay type: binding
Observation type: pKd
Please note pKd is a logarithmic value: minus log10 of concentration in mol/L. Answer with that number alone.

Req: For N[C@@H](CCC(=O)O)C(=O)O [glutamate] , what is its reported pKd?
Resp: 2.69

----------
# Tested on: C. glutamicum GlnH (GlnHcg) (Corynebacterium glutamicum, UniProt Q8NM30)
# Construct: gene Cgl2750; soluble domain, N-terminal His6 tag
# Experiment description: intrinsic tryptophan fluorescence, thermal melt shift
# Assay type: binding
# Condition notes: read-out: Kd (μM)^a
Observation type: Kd (µM)
Output spec: scalar in µM, unitless text.

Req: Notebook entry, C. glutamicum GlnH (GlnHcg) (Corynebacterium glutamicum, UniProt Q8NM30) assay: Kd of N[C@@H](CC(=O)O)C(=O)O [aspartate] = ?
Resp: 550

----------
# Tested on: GlnH (Mycobacterium tuberculosis)
# Experiment description: crystal structure, ITC, thermal melt shift
# Format: binding
# Condition notes: read-out: Kd (μM)^a
Observation type: Kd (µM)
Field: numeric (µM). Do not append units.

Req: What value of measured Kd is listed for N[C@@H](CC(=O)O)C(=O)O [aspartate] ?
Resp: 4.8
